B1: TPR 5TU (parent)
chain: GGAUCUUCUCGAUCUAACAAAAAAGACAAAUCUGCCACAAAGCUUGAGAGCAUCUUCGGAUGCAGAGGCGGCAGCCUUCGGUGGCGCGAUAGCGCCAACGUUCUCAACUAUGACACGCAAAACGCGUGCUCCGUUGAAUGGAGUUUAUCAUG

- Variants of: B1
- assay_summary: polymerase ribozyme fitness, log enrichment relative to wild type (log ratio); higher = more active; in vitro selection for triplet polymerase activity
This sample holds only a part of the variants without activity.
endpoint_label: polymerase ribozyme fitness (log ratio)

Study these solved cases before continuing.
# variant_key, polymerase ribozyme fitness (log ratio)
records = [
    ("U9G A73U C87U U102A C105G C108A", "≤ -4.2"),
    ("A16G C43U C79U C132U", "≤ -4.2"),
    ("U31G U56A G80C C87G C99G", "≤ -4.2"),
    ("C54G U61C G84U C87U G88A A119U", "≤ -4.2"),
    ("G86U U90G A98U G143C", "≤ -4.2"),
    ("C5G U9C A16C A28G A30U C32G C35A G59U G92U C105U G143C", "≤ -4.2"),
    ("A21G G58C", 0.298),
    ("C57U G84C C95A C116G G136U A138C", -4.17),
]

Task: Item U4G A37C C87U A122G C125A has what recorded polymerase ribozyme fitness (log ratio)?
Result: -3.07

Task: Item A16U A106G U144A has what recorded polymerase ribozyme fitness (log ratio)?
Result: -2.13

Task: Item C131U U144G has what recorded polymerase ribozyme fitness (log ratio)?
Result: -0.864

Task: Item A20G C43U G62U A91G has what recorded polymerase ribozyme fitness (log ratio)?
Result: ≤ -4.2

Task: Item A24U U135C has what recorded polymerase ribozyme fitness (log ratio)?
Result: -2.21

Task: Item C18G C35U C75U C95U A120G U134C has what recorded polymerase ribozyme fitness (log ratio)?
Result: -2.68

Task: Item G83A U104G A122U U134G has what recorded polymerase ribozyme fitness (log ratio)?
Result: -3.23

Task: Item C51A C85U A89G U146A has what recorded polymerase ribozyme fitness (log ratio)?
Result: -3.11

Task: Item C93U C123G A138C has what recorded polymerase ribozyme fitness (log ratio)?
Result: ≤ -4.2
